# experiment: Half life in mouse at 10 mg/kg, po
# Assay type: ADME, organism-based
# condition_parameters: in vivo
assay_endpoint: half-life (h)

[P] CCc1cc(NC(=O)[C@H](O)c2cc(F)cc(F)c2)ccc1-c1cnc(N)c(C(=O)NC(C)C)c1
[Q] Cc1cc(NC(=O)[C@H](O)c2cc(F)cc(F)c2)ccc1-c1cnc(N)c(C(=O)NC(C)C)c1
Which has the smaller recorded half-life, P or Q ? Indicate which entry you chose by stating its label. Q
(Q: 1.2 h, P: 2 h)

====

# experiment: Half life in mouse hepatocytes
# Assay type: ADME, cell-based, Hepatocyte
assay_endpoint: half-life (min)

| chemical_string | units_of_measure | half-life |
| --- | --- | --- |
| Cc1cc(NC(=O)[C@H](O)c2cc(F)cc(F)c2)ccc1-c1cnc(N)c(C(=O)NC(C)C)c1 | min | 69 |
| Cc1cc(NC(=O)[C@H](O)c2cc(F)cc(F)c2)ccc1-c1cnc(N)c(C(=O)NC2CC2)c1 | min | 48 |
| Cc1cc(NC(=O)[C@H](O)c2cccc(Cl)c2)ccc1-c1cnc(N)c(C(=O)NC(C)C)c1 | min | 47 |

[I] CCc1cc(NC(=O)[C@H](O)c2cc(F)cc(F)c2)ccc1-c1cnc(N)c(C(=O)NC(C)C)c1
[II] CC(C)NC(=O)c1cc(-c2ccc(NC(=O)[C@H](O)c3cc(F)cc(F)c3)cc2Cl)cnc1N
# argmax over half-life for candidates I and II Indicate which entry you chose by stating its label. I
